Listed here are compounds together with their documented selectivity of action / better ratio than 1α,25-DHCC (fold).
Test system: HL-60 cells / intestinal Ca^2+ transport
Assay: Cell differentiation versus calciotropic effect (ratio of HL-60 NBT reduction to intestinal Ca2+ transport)
Type: cell-based, human
Details: differentiation versus intestinal Ca transport
observable: selectivity of action / better ratio than 1α,25-DHCC (fold) (×)

1. C=C1/C(=C\C=C2/CCC[C@@]3(C)C2CCC3[C@H](C)CCCC(O)(C(C)(C)C)C(C)(C)C)C[C@@H](O)C[C@@H]1O (stereo partly shown) [Compound 12]	4
2. C=C1/C(=C\C=C2/CCC[C@@]3(CC)C2CCC3[C@H](C)CCCC(O)(C(C)C)C(C)C)C[C@@H](O)C[C@@H]1O (stereo partly shown) [Compound 14]	50
3. C=C1/C(=C\C=C2/CCC[C@@]3(C)C2CCC3[C@H](C)CCCC(O)(C2CC2)C2CC2)C[C@@H](O)C[C@@H]1O (stereo partly shown) [Compound 11]	8
4. C=C1/C(=C\C=C2/CCC[C@@]3(C)C2CCC3[C@H](C)CCCC(O)(C(C)C)C(C)C)C[C@@H](O)C[C@@H]1O (stereo partly shown) [Compound 13]	50

###

System: human leukemic cell line HL-60
Assay: HL-60 cell differentiation assay (NBT reduction, non-specific esterase, May-Grunwald Giemsa)
Assay type: cell-based
Settings: HL-60; FIGS. 3 and 4
observable: NBT-reduction inducing capacity relative to 1α,25-DHCC (fold stronger)

1) C=C1/C(=C\C=C2/CCC[C@@]3(CC)C2CCC3[C@H](C)CCCC(O)(C(C)C)C(C)C)C[C@@H](O)C[C@@H]1O (stereo partly shown)	about 10 ×
2) C=C1/C(=C\C=C2/CCC[C@@]3(C)C2CCC3[C@H](C)CCCC(O)(C(C)(C)C)C(C)(C)C)C[C@@H](O)C[C@@H]1O (stereo partly shown)	about 5 ×
3) C=C1/C(=C\C=C2/CCC[C@@]3(C)C2CCC3[C@H](C)CCCC(O)(C2CC2)C2CC2)C[C@@H](O)C[C@@H]1O (stereo partly shown)	about 5 ×
4) C=C1/C(=C\C=C2/CCC[C@@]3(C)C2CCC3[C@H](C)CCCC(O)(C(C)C)C(C)C)C[C@@H](O)C[C@@H]1O (stereo partly shown)	about 10 ×

###

Listed here are molecules together with their documented increase in Ca^2+ -reabsorption.
Test system: rabbit kidney cells
Assay: Rabbit kidney cell assay (45Ca2+ reabsorption)
Format: cell-based
Details: rabbit renal cell cultures; 10^-9 M
observable: increase in Ca^2+ -reabsorption (mmol/cm^2 /h)

1) C=C1/C(=C\C=C2/CCC[C@]3(C)[C@@H]([C@H](C)CCCC(C)(C)O)CC[C@@H]23)C[C@@H](O)C[C@@H]1O [1α,25-DHCC, 1α,25-dihydroxycholecalciferol, reference compound]	13.4
2) C=C1/C(=C\C=C2/CCC[C@@]3(C)C2CCC3[C@H](C)CCCC(O)(C2CC2)C2CC2)C[C@@H](O)C[C@@H]1O (stereo partly shown)	2.4
3) C=C1/C(=C\C=C2/CCC[C@@]3(C)C2CCC3[C@H](C)CCCC(O)(C(C)C)C(C)C)C[C@@H](O)C[C@@H]1O (stereo partly shown)	-3.7
4) C=C1/C(=C\C=C2/CCC[C@@]3(C)C2CCC3[C@H](C)CCCC(O)(C(C)(C)C)C(C)(C)C)C[C@@H](O)C[C@@H]1O (stereo partly shown)	12.8
